As shown below, each of these compounds has a reported IC50 value.
# target or test system: BTK (Homo sapiens)
# Sequence (Q06187 whole entry): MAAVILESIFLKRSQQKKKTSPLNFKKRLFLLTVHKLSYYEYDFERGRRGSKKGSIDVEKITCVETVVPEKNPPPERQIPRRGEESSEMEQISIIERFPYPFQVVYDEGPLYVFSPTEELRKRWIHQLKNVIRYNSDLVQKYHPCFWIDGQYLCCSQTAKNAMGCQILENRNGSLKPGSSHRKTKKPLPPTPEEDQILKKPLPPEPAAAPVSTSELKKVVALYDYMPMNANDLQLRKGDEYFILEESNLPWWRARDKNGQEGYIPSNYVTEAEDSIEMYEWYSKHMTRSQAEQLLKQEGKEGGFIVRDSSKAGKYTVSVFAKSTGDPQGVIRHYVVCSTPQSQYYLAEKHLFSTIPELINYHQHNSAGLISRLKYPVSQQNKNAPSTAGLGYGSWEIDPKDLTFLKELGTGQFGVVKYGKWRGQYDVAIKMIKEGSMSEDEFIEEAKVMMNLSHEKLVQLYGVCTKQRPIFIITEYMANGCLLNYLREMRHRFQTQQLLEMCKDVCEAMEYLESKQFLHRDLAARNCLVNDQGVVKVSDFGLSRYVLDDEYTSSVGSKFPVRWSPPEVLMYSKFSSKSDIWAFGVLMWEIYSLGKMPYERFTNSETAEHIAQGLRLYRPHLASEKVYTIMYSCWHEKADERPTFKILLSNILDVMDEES
# experimental protocol: BTK Kinase Enzyme System with ADP-Glo Kinase Assay
# conditions: 50 μM ATP

- item smiles: "Cc1cccnc1[C@H]1CCC[C@@H](c2ncccc2C)N1CCN1CCN(C(=O)c2ccc(-c3cc4c(-c5cccc(NC(=O)c6ccccc6)c5C)ncnc4[nH]3)cc2)CC1"
  IC50: "1 to 100 nM"
- item smiles: "Cc1cc(-c2ccnc(Nc3cnn(CCCN4[C@@H](c5ncccc5C)CCC[C@H]4c4ncccc4C)c3)n2)ccc1CNC(=O)N1CC(OC(C)C)C1"
  IC50: "1 to 100 nM"
- item smiles: "Cc1cccnc1[C@H]1CCC[C@@H](c2ncccc2C)N1CCCCNC(=O)c1cc2c(-c3ccc(CNC(=O)c4ccc(C(C)(C)C)cc4)cc3)ncnc2[nH]1"
  IC50: "100 to 1000 nM"
- item smiles: "Cc1cccnc1[C@H]1CCC[C@@H](c2ncccc2C)N1CCCCOC(=O)[C@@H]1CC[C@@H](Nc2ncnc3[nH]cc(C(=O)c4ccc(Oc5ccccc5)cc4Cl)c23)CO1"
  IC50: "1 to 100 nM"
- item smiles: "Cc1cccnc1[C@H]1CCC[C@@H](c2ncccc2C)N1CCNC1CN(C(=O)c2ccc(-c3cc4c(-c5cccc(NC(=O)c6ccccc6)c5C)ncnc4[nH]3)cc2)C1"
  IC50: "100 to 1000 nM"

---

# target or test system: TRKC (Homo sapiens, UniProt Q16288)
# Construct: purchased Reaction Biology Europe GmbH
# Sequence (Q16288 32-839): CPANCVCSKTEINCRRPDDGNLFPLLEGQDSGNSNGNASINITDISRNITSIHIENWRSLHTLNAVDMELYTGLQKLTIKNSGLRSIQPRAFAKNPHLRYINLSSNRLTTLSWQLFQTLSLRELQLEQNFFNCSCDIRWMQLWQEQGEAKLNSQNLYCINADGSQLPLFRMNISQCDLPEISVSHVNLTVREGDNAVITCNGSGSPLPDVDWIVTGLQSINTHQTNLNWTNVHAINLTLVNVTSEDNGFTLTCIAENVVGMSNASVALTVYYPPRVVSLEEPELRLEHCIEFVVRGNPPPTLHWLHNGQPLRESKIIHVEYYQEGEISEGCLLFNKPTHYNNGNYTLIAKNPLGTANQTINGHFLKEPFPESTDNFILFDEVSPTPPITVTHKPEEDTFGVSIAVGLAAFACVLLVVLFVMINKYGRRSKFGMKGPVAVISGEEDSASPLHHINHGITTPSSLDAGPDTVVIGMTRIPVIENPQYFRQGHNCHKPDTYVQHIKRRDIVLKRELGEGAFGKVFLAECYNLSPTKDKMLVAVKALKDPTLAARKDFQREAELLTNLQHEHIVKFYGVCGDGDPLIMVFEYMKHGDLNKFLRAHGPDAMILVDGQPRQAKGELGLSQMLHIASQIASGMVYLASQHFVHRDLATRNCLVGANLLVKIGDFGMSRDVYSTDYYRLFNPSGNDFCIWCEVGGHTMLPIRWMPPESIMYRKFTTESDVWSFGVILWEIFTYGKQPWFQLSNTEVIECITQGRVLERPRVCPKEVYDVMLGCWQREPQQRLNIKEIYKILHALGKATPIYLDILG
# experimental protocol: PanQinase kinase panel: TRKC
# Format: biochemical
# conditions: read-out: INHIBITORY EFFECT @ 1 uM: TRKC

- item smiles: "COc1ccc(F)cc1C(=O)NCc1ccc(-c2nn([C@@H](C)C(F)(F)F)c(N)c2C(N)=O)cc1"
  target or test system: "TRKC (Homo sapiens, UniProt Q16288)"
  inhibition at 1 µM: "50 to 69%"
- item smiles: "C=CC(=O)N1CCC([C@@H]2CCNc3c(C(N)=O)c(-c4ccc(Oc5ccccc5)cc4)nn32)CC1"
  target or test system: "TRKC (Homo sapiens, UniProt Q16288)"
  inhibition at 1 µM: "< 50%"
- item smiles: "Cc1cccnc1[C@H]1CCC[C@@H](c2ncccc2C)N1CCN1CCN(C(=O)c2ccc(-c3cc4c(-c5cccc(NC(=O)c6ccccc6)c5C)ncnc4[nH]3)cc2)CC1"
  target or test system: "TRKC (Homo sapiens, UniProt Q16288)"
  inhibition at 1 µM: "< 50%"
- item smiles: "O=C(c1ccc(Oc2ccccc2)cc1Cl)c1c[nH]c2ncnc(N[C@@H]3CC[C@@H](CO)OC3)c12"
  target or test system: "TRKC (Homo sapiens, UniProt Q16288)"
  inhibition at 1 µM: "< 50%"

---

As shown below, each of these compounds has a reported inhibition at 1 µM value.
# target or test system: DDR2 (Homo sapiens)
# Construct: purchased Reaction Biology Europe GmbH
# Sequence (Q16832 22-855): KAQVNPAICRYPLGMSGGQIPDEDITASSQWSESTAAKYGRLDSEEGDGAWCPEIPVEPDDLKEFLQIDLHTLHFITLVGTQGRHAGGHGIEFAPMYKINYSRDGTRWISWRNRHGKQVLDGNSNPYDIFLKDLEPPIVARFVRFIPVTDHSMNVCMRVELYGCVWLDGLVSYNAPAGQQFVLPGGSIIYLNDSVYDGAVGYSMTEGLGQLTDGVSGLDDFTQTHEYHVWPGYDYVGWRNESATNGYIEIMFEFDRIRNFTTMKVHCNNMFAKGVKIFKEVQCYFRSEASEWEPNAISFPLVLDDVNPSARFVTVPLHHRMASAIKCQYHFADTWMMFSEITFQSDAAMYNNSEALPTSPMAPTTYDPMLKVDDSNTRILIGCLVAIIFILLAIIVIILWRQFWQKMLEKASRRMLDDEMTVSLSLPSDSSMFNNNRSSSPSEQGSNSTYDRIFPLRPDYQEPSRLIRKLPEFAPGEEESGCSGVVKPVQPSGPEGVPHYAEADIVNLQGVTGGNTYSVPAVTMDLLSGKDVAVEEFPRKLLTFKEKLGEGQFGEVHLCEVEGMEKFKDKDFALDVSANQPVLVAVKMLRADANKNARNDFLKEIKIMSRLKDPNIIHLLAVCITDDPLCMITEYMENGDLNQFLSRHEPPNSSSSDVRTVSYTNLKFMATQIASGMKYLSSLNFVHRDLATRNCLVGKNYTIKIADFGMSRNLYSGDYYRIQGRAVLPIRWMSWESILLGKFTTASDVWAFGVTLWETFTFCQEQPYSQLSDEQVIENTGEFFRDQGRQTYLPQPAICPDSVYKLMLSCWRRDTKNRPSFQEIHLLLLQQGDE
# experimental protocol: PanQinase kinase panel: DDR2
# Type: biochemical
# conditions: read-out: INHIBITORY EFFECT @ 1 uM: DDR2
# Method: Screening procedures were performed in accordance with the company's on-line protocol [accessed on-line Mar. For each kinase, the median value of the cpm of three wells was defined as “low control” (n=3). This value reflects unspecific binding of radioactivity to the plate in the absence of a protein kinase but in the presence of the substrate. […]
property name: inhibition at 1 µM

- compound: "C=CC(=O)N1CCC([C@@H]2CCNc3c(C(N)=O)c(-c4ccc(Oc5ccccc5)cc4)nn32)CC1 [Zanubrutinib]"
  property name: "inhibition at 1 µM"
  val: "< 50%"
- compound: "Cc1cccnc1[C@H]1CCC[C@@H](c2ncccc2C)N1CCN1CCN(C(=O)c2ccc(-c3cc4c(-c5cccc(NC(=O)c6ccccc6)c5C)ncnc4[nH]3)cc2)CC1 [Compound I-10]"
  property name: "inhibition at 1 µM"
  val: "70 to 89%"
- compound: "COc1ccc(F)cc1C(=O)NCc1ccc(-c2nn([C@@H](C)C(F)(F)F)c(N)c2C(N)=O)cc1 [LOXO-305, pirtobrutinib]"
  property name: "inhibition at 1 µM"
  val: "< 50%"
- compound: "O=C(c1ccc(Oc2ccccc2)cc1Cl)c1c[nH]c2ncnc(N[C@@H]3CC[C@@H](CO)OC3)c12 [ARQ-531]"
  property name: "inhibition at 1 µM"
  val: "50 to 69%"
